Numbers sourced from patent US10925971B2.

- Tested on: Macaca fascicularis PRLR (mfPRLR.mmh; SEQ ID NO:403)
- Sequence (as listed by the source): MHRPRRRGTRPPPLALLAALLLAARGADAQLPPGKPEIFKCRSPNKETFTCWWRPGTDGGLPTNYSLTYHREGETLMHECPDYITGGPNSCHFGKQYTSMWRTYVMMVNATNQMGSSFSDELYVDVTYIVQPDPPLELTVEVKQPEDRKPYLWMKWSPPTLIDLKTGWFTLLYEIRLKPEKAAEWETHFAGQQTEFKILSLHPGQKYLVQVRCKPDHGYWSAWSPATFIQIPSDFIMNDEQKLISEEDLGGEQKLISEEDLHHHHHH
- protocol.description: Surface plasmon resonance (Biacore T200), antibody-capture format
- Format: binding
- assay.setup: 37° C., analyte mfPRLR.mmh
- Description: Antibodies, expressed as human IgG1 Fc (i.e., “H1H” designations), were captured onto an anti-human Fc sensor surface (mAb-capture format), and soluble monomeric (hPRLR.mmh; SEQ ID NO:401, or Macaca fascicularis (mf) PRLR.mmh; SEQ ID NO:403) or dimeric (hPRLR.mFc; SEQ ID NO:402) PRLR protein was injected over the sensor surface. Measurements were conducted on a T200 Biacore instrument. […]
readout: ka (M/s)

H1H6781P: fully human anti-PRLR antibody, human IgG1 Fc; HCVR/LCVR SEQ ID NOs 50/58 (antibody, V domains shown) VH: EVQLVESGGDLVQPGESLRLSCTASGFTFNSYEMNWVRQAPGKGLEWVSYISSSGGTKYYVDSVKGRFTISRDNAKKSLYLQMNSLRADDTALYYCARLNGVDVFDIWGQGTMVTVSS VL: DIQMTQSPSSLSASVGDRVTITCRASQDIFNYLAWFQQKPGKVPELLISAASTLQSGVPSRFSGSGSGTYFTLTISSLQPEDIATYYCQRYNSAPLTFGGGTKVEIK	247000
H1H6795P: fully human anti-PRLR antibody, human IgG1 Fc; HCVR/LCVR SEQ ID NOs 162/170 (antibody, V domains shown) VH: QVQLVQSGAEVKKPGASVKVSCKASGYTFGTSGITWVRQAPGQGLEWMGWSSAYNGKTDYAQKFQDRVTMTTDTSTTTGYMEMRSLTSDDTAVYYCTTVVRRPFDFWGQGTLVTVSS VL: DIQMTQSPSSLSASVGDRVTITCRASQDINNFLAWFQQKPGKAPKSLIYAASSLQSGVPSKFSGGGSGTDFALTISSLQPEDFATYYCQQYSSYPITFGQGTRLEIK	973000
